test system: HeLa; assay: Transactivation assay for antiestrogenic action in HeLa cells; format: cell-based; conditions: Homo sapiens

| Molecule | IC50 |
| --- | --- |
| CN(CCCCC[C@@H]1Cc2cc(O)ccc2[C@@H]2[C@@H]1[C@@H]1CC[C@H](O)[C@@]1(C)C[C@@H]2F)CCCC(F)(F)C(F)(F)F [Example 8] | 8 nM |
| CN(CCCCCCCCC(F)(F)C(F)(F)F)CCCCC[C@@H]1Cc2cc(O)ccc2[C@@H]2[C@@H]1[C@@H]1CC[C@H](O)[C@@]1(C)C[C@@H]2F [Example 3] | 0.2 nM |

====

system: MVLN cells; assay: Transactivation assay for antiestrogenic action in MVLN cells (reporter gene Vit-TK-LUC); format: cell-based; settings: Homo sapiens; MVLN cell line, in the presence of 0.1 nM of estradiol
Value Kind: IC50 (nM)

| Compound | Measure Unit | Numeric Readout |
| --- | --- | --- |
| CN(CCCCC[C@@H]1Cc2cc(O)ccc2[C@@H]2[C@@H]1[C@@H]1CC[C@H](O)[C@@]1(C)C[C@@H]2F)CCCC(F)(F)C(F)(F)F [Example 8] | nM | 37 |
| CN(CCCCCCCCC(F)(F)C(F)(F)F)CCCCC[C@@H]1Cc2cc(O)ccc2[C@@H]2[C@@H]1[C@@H]1CC[C@H](O)[C@@]1(C)C[C@@H]2F [Example 3] | nM | 6.3 |

====

system: human estrogen receptor; assay: Partial estrogenic action: transactivation assay, HeLa cells with HEGO and reporter gene rPR-TK-CAT; assay type: cell-based; conditions: concentration of 1 μm, negative value means suppression of reporter gene activity below controls
Assign class by Activation of the rPR-TK Promoter [% estradiol]: not lower than 30 % estradiol means fulfilled; lower than 30 % estradiol means not fulfilled.

| Molecule | Discrete Label |
| --- | --- |
| CN(CCCCC[C@@H]1Cc2cc(O)ccc2[C@@H]2[C@@H]1[C@@H]1CC[C@H](O)[C@@]1(C)C[C@@H]2F)CCCOCc1ccccc1 [Example 22] | fulfilled |
| CN(CC=C(F)C(F)(F)C(F)(F)C(F)(F)F)CCCCC[C@@H]1Cc2cc(O)ccc2[C@@H]2[C@@H]1[C@@H]1CC[C@H](O)[C@@]1(C)C[C@@H]2F [Example 18] | not fulfilled |
| CN(CCCCCCCCC(F)(F)C(F)(F)F)CCCCC[C@@H]1Cc2cc(O)ccc2[C@@H]2[C@@H]1[C@@H]1CC[C@H](O)[C@@]1(C)C[C@@H]2F [Example 3] | not fulfilled |
| CN(CCCCC[C@@H]1Cc2cc(O)ccc2[C@@H]2[C@@H]1[C@@H]1CC[C@H](O)[C@@]1(C)C[C@@H]2F)CCCC(F)(F)C(F)(F)F [Example 8] | fulfilled |
| CN(CCCCCCC(F)(F)C(F)(F)F)CCCCC[C@@H]1Cc2cc(O)ccc2[C@@H]2[C@@H]1[C@@H]1CC[C@H](O)[C@@]1(C)C[C@@H]2F [Example 12] | fulfilled |
